Data credit: patent US6534522B2

# SYSTEM_UNDER_TEST: NR1A/2A NMDA receptor (Rattus norvegicus, UniProt P35439+Q00959)
# Sequence (Q00959 20-1464 limits assumed, other chains not shown): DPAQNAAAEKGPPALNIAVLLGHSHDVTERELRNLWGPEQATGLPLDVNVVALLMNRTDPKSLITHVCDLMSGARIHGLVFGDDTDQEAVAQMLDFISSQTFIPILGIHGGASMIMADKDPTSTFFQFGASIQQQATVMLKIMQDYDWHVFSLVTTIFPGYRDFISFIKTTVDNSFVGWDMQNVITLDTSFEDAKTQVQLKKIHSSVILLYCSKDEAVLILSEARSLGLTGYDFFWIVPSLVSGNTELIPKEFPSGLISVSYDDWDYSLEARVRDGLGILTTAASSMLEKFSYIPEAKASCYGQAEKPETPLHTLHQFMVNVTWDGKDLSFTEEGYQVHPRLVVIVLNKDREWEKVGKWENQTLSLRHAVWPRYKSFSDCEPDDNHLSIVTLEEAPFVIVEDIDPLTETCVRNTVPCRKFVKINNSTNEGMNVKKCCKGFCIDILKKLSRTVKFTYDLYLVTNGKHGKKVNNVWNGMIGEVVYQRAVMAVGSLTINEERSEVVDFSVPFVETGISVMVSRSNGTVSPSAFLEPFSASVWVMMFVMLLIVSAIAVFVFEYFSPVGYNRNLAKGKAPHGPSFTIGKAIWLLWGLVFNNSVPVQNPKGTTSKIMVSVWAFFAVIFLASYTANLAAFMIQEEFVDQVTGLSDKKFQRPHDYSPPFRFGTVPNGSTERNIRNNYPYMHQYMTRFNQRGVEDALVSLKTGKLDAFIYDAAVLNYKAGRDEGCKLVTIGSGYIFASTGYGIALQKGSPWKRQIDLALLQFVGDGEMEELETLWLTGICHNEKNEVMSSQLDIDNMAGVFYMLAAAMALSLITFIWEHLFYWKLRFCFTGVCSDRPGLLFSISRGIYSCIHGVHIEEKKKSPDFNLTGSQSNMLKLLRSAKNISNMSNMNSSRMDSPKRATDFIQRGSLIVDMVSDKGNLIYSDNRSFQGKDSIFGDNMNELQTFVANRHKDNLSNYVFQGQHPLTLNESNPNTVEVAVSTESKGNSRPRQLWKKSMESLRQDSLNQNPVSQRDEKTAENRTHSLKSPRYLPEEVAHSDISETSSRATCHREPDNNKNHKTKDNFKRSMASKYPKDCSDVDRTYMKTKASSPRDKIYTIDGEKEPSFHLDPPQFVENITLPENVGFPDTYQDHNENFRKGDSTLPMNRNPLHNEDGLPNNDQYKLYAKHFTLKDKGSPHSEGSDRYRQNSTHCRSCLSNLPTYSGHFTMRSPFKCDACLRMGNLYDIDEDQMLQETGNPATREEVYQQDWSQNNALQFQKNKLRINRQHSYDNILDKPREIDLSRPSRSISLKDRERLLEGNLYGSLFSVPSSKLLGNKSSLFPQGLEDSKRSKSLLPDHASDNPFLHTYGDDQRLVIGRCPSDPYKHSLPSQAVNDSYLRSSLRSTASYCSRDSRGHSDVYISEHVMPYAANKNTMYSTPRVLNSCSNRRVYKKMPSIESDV
# MEASUREMENT_DESCRIPTION: Xenopus oocyte expression system, two-electrode voltage clamp, NR1A/2A
# Assay type: cell-based
# STATED_CONDITIONS: cloned NR1A/2A subunits expressed in Xenopus oocytes; inhibition of agonist-evoked membrane current; read-out: 1A/2A IC50
pIC50: −log10 of the molar value. Structures can show the parent of a compound that is named as a salt.
READOUT: pIC50

Below, each entry is followed by its recorded pIC50 result.
Q: What pIC50 appears in the records for this compound with NR1A/2A NMDA receptor (Rattus norvegicus, UniProt P35439+Q00959)? CCCCCCN1CCC(Cc2ccccc2)CC1
Ans: < 3.52

Q: Entry OCC(O)CN1CCC(Cc2ccccc2)CC1 (stereo not drawn) please
Ans: < 3.52

Q: Entry CC(O)CCN1CCC(Cc2ccc(Cl)cc2)CC1.Cl (stereo not drawn) [Ex. 99, hydrochloride] please
Ans: < 3.52

More entries:
Q: What pIC50 appears in the records for this compound with NR1A/2A NMDA receptor (Rattus norvegicus, UniProt P35439+Q00959)? COc1ccc(CC2CCN(CCCO)CC2)cc1 [Ex. 93, hydrobromide]
Ans: < 3.52

Q: Entry OCCCN1CCC(Cc2ccccc2)CC1 [Ex. 83, hydrobromide] please
Ans: 3.65

* * *

# SYSTEM_UNDER_TEST: NR1A/2B NMDA receptor (Rattus norvegicus, UniProt P35439+Q00960)
# Sequence (Q00960 27-1482, other chains not shown): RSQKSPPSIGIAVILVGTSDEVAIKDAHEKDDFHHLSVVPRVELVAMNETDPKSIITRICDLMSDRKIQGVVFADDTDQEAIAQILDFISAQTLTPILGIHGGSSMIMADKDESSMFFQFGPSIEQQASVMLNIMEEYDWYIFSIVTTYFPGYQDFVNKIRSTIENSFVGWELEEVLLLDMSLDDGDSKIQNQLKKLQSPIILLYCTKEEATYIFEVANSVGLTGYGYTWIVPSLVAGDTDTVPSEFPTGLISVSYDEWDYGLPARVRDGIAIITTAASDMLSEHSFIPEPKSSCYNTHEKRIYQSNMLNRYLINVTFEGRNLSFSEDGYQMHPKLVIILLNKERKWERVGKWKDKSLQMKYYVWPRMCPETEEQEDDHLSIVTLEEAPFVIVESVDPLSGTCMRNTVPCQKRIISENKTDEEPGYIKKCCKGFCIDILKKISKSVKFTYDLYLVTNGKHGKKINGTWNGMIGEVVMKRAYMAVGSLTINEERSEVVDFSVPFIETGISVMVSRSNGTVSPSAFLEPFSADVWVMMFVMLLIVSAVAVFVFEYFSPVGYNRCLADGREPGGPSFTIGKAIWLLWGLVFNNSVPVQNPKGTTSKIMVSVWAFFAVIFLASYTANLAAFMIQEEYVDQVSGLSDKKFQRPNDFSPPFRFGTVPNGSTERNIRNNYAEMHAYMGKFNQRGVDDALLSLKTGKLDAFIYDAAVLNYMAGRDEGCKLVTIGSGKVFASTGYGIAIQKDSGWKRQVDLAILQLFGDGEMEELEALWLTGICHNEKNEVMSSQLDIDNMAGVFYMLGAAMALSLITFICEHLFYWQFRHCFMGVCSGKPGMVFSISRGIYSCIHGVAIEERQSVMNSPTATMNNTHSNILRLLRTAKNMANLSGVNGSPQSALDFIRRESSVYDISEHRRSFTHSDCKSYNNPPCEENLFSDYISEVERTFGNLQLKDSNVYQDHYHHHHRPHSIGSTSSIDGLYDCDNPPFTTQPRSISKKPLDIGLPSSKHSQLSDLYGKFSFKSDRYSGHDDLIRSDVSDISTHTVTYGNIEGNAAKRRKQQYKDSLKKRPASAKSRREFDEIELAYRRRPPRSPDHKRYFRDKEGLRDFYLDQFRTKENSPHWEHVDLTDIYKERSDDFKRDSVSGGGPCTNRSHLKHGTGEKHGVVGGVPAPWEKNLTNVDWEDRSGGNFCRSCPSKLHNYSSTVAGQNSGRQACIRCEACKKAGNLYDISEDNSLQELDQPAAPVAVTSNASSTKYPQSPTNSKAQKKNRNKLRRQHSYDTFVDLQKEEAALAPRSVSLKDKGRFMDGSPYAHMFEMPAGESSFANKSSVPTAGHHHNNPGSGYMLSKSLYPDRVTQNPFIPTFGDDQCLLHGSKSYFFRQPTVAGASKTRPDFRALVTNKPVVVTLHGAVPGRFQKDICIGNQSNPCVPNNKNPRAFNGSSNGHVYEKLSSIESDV
# MEASUREMENT_DESCRIPTION: Xenopus oocyte expression system, two-electrode voltage clamp, NR1A/2B
# Type: cell-based
# STATED_CONDITIONS: cloned NR1A/2B subunits expressed in Xenopus oocytes; inhibition of agonist-evoked membrane current; read-out: 1A/2B IC50
Where a name gives a salt, the structure may show the parent alone.
// reported IC50 for each item listed
Field: numeric (µM). Do not append units.

Q: Quick check: IC50 of C[C@@H](CO)CN1CCC(Cc2ccc(F)cc2)CC1 [Ex. 92, hydrochloride] ?
Ans: 8

Q: Entry COc1ccc(CC2CCN(CCCO)CC2)cc1 [Ex. 93, hydrobromide] please
Ans: 9

Q: Entry CCCCCCN1CCC(Cc2ccccc2)CC1 [(A), 4-benzyl-1-hexylpiperidine] please
Ans: 5

Q: Entry c1ccc(OCCCN2CCc3ccccc3C2)cc1 [Ex. 19] please
Ans: 10

Q: Entry c1ccc(OCCN2CCc3ccccc3C2)cc1 [Ex. 18] please
Ans: 35

More entries:
Q: Quick check: IC50 of COC(=O)CCCCN1CCCC(Cc2ccccc2)C1 (stereo not shown) [Ex. 34] ?
Ans: 240

Q: Entry C#CCCN1CCC(Cc2ccccc2)CC1 [Ex. 6, 4-benzyl-1-(3-Butynyl)piperidine] please
Ans: 2.3

Q: Entry c1ccc(OCCCN2CCc3c([nH]c4ccccc34)C2)cc1 [Ex. 25] please
Ans: 9

Q: Entry OCC1CC2CC(Cc3ccccc3)CCN2C1 (stereo not shown) [Ex. 88] please
Ans: 5

Q: Entry NNC(=O)CCCCN1CCC(Cc2ccccc2)CC1 [Ex. 3, 4-Benzylpiperidylpentahydrazide] please
Ans: 4

Q: Entry CCCCN1CCC(Cc2ccccc2)CC1 [(B), 4-benzyl-1-butylpiperidine] please
Ans: 25

* * *

// reported IC50 for each item listed
# SYSTEM_UNDER_TEST: NR1A/2A NMDA receptor (Rattus norvegicus, UniProt P35439+Q00959)
# MEASUREMENT_DESCRIPTION: Xenopus oocyte expression system, two-electrode voltage clamp, NR1A/2A
# Assay type: cell-based
# STATED_CONDITIONS: cloned NR1A/2A subunits expressed in Xenopus oocytes; inhibition of agonist-evoked membrane current; read-out: 1A/2A IC50
Counter-ions that a name gives are not always drawn.
Field: numeric (µM). Do not append units.

Q: Quick check: IC50 of CC(O)CCN1CCC(Cc2ccc(F)cc2)CC1 (stereo not shown) [Ex. 91, hydrochloride] ?
Ans: 230

More entries:
Q: Quick check: IC50 of CC(O)CCN1CCC(Cc2ccc(N)cc2)CC1 (stereo not shown) [Ex. 105, hydrochloride] ?
Ans: 120

* * *

# SYSTEM_UNDER_TEST: NR1A/2B NMDA receptor (Rattus norvegicus, UniProt P35439+Q00960)
# MEASUREMENT_DESCRIPTION: Xenopus oocyte expression system, two-electrode voltage clamp, NR1A/2B
# Format: cell-based
# STATED_CONDITIONS: cloned NR1A/2B subunits expressed in Xenopus oocytes; inhibition of agonist-evoked membrane current; read-out: 1A/2B IC50
// reported IC50 for each item listed
Field: numeric (µM). Do not append units.

Below, each entry is followed by its recorded IC50 result.
Q: Quick check: IC50 of Br.Fc1ccc(OCCNN2CCC(Cc3ccc(Cl)cc3)CC2)cc1 [Ex. 106, hydrobromide] ?
Ans: 5

Q: Entry NCCCN1CCC(Cc2ccccc2)CC1 please
Ans: 40

Q: Entry Fc1cccc(C[P+](c2ccccc2)(c2ccccc2)c2ccccc2)c1 please
Ans: 65

Now look at this one.
Q: Quick check: IC50 of C#CCCN1CCC(O)(c2ccc(Cl)cc2)CC1 ?
Ans: 65
